test system: Staphylococcus; assay: Antibacterial activity against methicillin-susceptible coagulase-negative unspeciated Staphylococcus clinical isolate by broth microdilution method; assay type: functional
MIC90 for assorted compounds
Reply with just the number (in µg/mL).

Consider the worked cases shown below.
CCCCCCCCCC(=O)N[C@@H](Cc1c[nH]c2ccccc12)C(=O)N[C@H](CC(N)=O)C(=O)N[C@@H](CC(=O)O)C(=O)N[C@@H]1C(=O)NCC(=O)N[C@@H](CCCN)C(=O)N[C@@H](CC(=O)O)C(=O)N[C@H](C)C(=O)N[C@@H](CC(=O)O)C(=O)NCC(=O)N[C@H](CO)C(=O)N[C@@H]([C@H](C)CC(=O)O)C(=O)N[C@@H](CC(=O)c2ccccc2N)C(=O)O[C@@H]1C | 1
CN[C@H](CC(C)C)C(=O)N[C@H]1C(=O)N[C@@H](CC(N)=O)C(=O)N[C@H]2C(=O)N[C@H]3C(=O)N[C@H](C(=O)N[C@H](C(=O)O)c4cc(O)cc(O)c4-c4cc3ccc4O)[C@H](O)c3ccc(c(Cl)c3)Oc3cc2cc(c3O[C@@H]2O[C@H](CO)[C@@H](O)[C@H](O)[C@H]2O[C@H]2C[C@](C)(N)[C@H](O)[C@H](C)O2)Oc2ccc(cc2Cl)[C@H]1O | 2
CCCCCCCCCCNCCN[C@@]1(C)C[C@H](O[C@H]2[C@H](Oc3c4cc5cc3Oc3ccc(cc3Cl)[C@@H](O)[C@@H](NC(=O)[C@@H](CC(C)C)NC)C(=O)N[C@@H](CC(N)=O)C(=O)N[C@H]5C(=O)N[C@H]3C(=O)N[C@H](C(=O)N[C@H](C(=O)O)c5cc(O)c(CNCP(=O)(O)O)c(O)c5-c5cc3ccc5O)[C@H](O)c3ccc(c(Cl)c3)O4)O[C@H](CO)[C@@H](O)[C@@H]2O)O[C@@H](C)[C@H]1O | 0.5

Then this compound:
Supply MIC90 value. Item: CC(=O)NC[C@H]1CN(c2ccc(N3CCOCC3)c(F)c2)C(=O)O1
1
